- experimental-details: NCI Yeast Anticancer Drug Screen. Data for the mlh1 rad18 strain (AID 175)
- test-context: S. cerevisiae mlh1 rad18 strain growth inhibition; at 50.0 µM; active compounds read high
The panel holds about 79,000 compounds, 15% with a hit somewhere; the sample as a whole holds those more often.
endpoint-name: growth inhibition (%)
Write it as a number; the unit % goes unstated.

Sample records with growth inhibition:
[Q] Would you mind telling me what growth inhibition value was observed for `CNc1cccc2ccccc12` ?
[A] -0.35

[Q] Would you mind telling me what growth inhibition value was observed for CC(C)=CC1C(C(=O)OCc2cc3c(cc2Cl)OCO3)C1(C)C (stereo not given) ?
[A] -3.9

[Q] Would you mind telling me what growth inhibition value was observed for `CCOP(=O)(CCP(=O)(OCC)OCC)OCC.C[CH2][Sn]([Cl])([Cl])[CH2]C` ?
[A] 41

[Q] Would you mind telling me what growth inhibition value was observed for `O=S(=O)(c1ccc(O)cc1)c1ccccc1O` ?
[A] 28.9

[Q] Would you mind telling me what growth inhibition value was observed for `COC(=O)CCSP(=S)(Oc1ccccc1)Oc1ccccc1` ?
[A] 9.1

[Q] Would you mind telling me what growth inhibition value was observed for `Cc1ccc(O)cc1C` ?
[A] 7.95

Continuing:
[Q] Would you mind telling me what growth inhibition value was observed for `CC(=O)O[C@H]1CC[C@]2(C)[C@H]3CC[C@]4(C)[C@@H](OC(C)=O)CC[C@H]4[C@@H]3[C@H](C=O)[C@]2(O)C1` ?
[A] 8.7

[Q] Would you mind telling me what growth inhibition value was observed for `CCCN(C)C(C)(C)C(=O)c1ccccc1` ?
[A] -8.1

[Q] Would you mind telling me what growth inhibition value was observed for `Cc1cc([N+](=O)[O-])c(N)c([N+](=O)[O-])c1` ?
[A] -4.75

[Q] Would you mind telling me what growth inhibition value was observed for Cc1ccc(N=C2OP(=O)(Nc3ccc(C)cc3)Oc3ccccc32)cc1 (stereo not given) ?
[A] -19.9

[Q] Would you mind telling me what growth inhibition value was observed for `CC(=O)CCC(=O)O` ?
[A] -19.9
